System: MT-2 human T-cells
Assay: Cytotoxicity, inhibition of MT-2 cell growth
Format: cell-based
Conditions: human
property: CC50 (µM)

>  <structure smiles string>
O=c1[nH]c(=O)n(CCOc2ccc(Cl)cc2Cc2ccccc2)cc1F

>  <value relation sign>
=

>  <value>
27

$$$$
>  <structure smiles string>
N#Cc1ccc(Cl)c(Oc2ccc(Cl)cc2OCCn2ccc(=O)[nH]c2=O)c1

>  <value relation sign>
=

>  <value>
60

$$$$
>  <structure smiles string>
N#Cc1cc(Cl)cc(Oc2ccc(C#N)cc2OCCn2ccc(=O)[nH]c2=O)c1

>  <value relation sign>
>

>  <value>
100

$$$$
>  <structure smiles string>
O=c1ccn(CCOc2ccc(Cl)cc2Cc2cc(Cl)ccc2Cl)c(=O)[nH]1

>  <value relation sign>
=

>  <value>
15

$$$$
>  <structure smiles string>
O=c1ccn(CCOc2ccc(Cl)cc2Cc2ccccc2Cl)c(=O)[nH]1

>  <value relation sign>
=

>  <value>
28

$$$$
>  <structure smiles string>
N#Cc1cccc(Cl)c1Oc1cc(Cl)ccc1OCCn1ccc(=O)[nH]c1=O

>  <value relation sign>
=

>  <value>
50

$$$$
>  <structure smiles string>
N#Cc1cc(Cl)cc(Oc2ccc(Cl)cc2OCCn2ccc(=O)[nH]c2=O)c1

>  <value relation sign>
>

>  <value>
100

$$$$
>  <structure smiles string>
O=c1ccn(CCOc2cc(Cl)cc(Cl)c2Oc2ccccc2Cl)c(=O)[nH]1

>  <value relation sign>
=

>  <value>
13

$$$$
>  <structure smiles string>
N#Cc1cc(C#N)cc(Oc2ccc(Cl)cc2OCCn2ccc(=O)[nH]c2=O)c1

>  <value relation sign>
>

>  <value>
100

$$$$

---

Below, each of the compounds is paired with its reported CC50 value.
Tested on: MT-2 human T-cells
Test: Cytotoxicity, inhibition of MT-2 cell growth
Type: cell-based

>  <structure smiles string>
N#C/C=C/c1cc(Cl)cc(Oc2ccc(Br)cc2OCCn2ccc(=O)[nH]c2=O)c1

>  <assayed system>
MT-2 human T-cells

>  <CC50 (µM)>
13

$$$$
>  <structure smiles string>
N#C/C=C/c1cc(Cl)cc(Oc2ccc(OCCN3CCOCC3)cc2OCCn2ccc(=O)[nH]c2=O)c1

>  <assayed system>
MT-2 human T-cells

>  <CC50 (µM)>
100

$$$$
>  <structure smiles string>
N#C/C=C/c1cc(F)cc(Oc2ccc(OCCN3CCOCC3)cc2OCCn2ccc(=O)[nH]c2=O)c1

>  <assayed system>
MT-2 human T-cells

>  <CC50 (µM)>
27

$$$$
>  <structure smiles string>
N#C/C=C/c1cc(Br)cc(Oc2ccc(Cl)cc2OCCn2ccc(=O)[nH]c2=O)c1

>  <assayed system>
MT-2 human T-cells

>  <CC50 (µM)>
80

$$$$
>  <structure smiles string>
N#C/C=C/c1cc(F)cc(Oc2ccc(Br)cc2OCCn2ccc(=O)[nH]c2=O)c1

>  <assayed system>
MT-2 human T-cells

>  <CC50 (µM)>
15

$$$$

---

Test system: MT-2 human T-cells
Experiment: Cytotoxicity, inhibition of MT-2 cell growth
Format: cell-based
Conditions: human

>  <compound>
O=c1ccn(CCOc2ccc(Cl)cc2Cc2cc(Cl)cc(Cl)c2)c(=O)[nH]1 [Compound 9]

>  <value relation sign>
=

>  <CC50, µM>
10

$$$$
>  <compound>
N#Cc1cc(F)c(Oc2ccccc2Cl)c(OCCn2ccc(=O)[nH]c2=O)c1 [Compound 44]

>  <value relation sign>
>

>  <CC50, µM>
100

$$$$
>  <compound>
Cc1cc(/C=C/C#N)cc(C)c1Nc1ccnc(Nc2ccc(C#N)cc2)n1 [rilpivirine]

>  <value relation sign>
>

>  <CC50, µM>
1

$$$$
>  <compound>
O=c1[nH]c(=O)n(CCOc2ccc(Cl)cc2Cc2ccccc2)cc1Cl [Compound 14]

>  <value relation sign>
=

>  <CC50, µM>
21

$$$$
>  <compound>
O=c1ccn(CCOc2ccc(Cl)cc2Cc2cccc(Cl)c2)c(=O)[nH]1 [Compound 7]

>  <value relation sign>
=

>  <CC50, µM>
11

$$$$
>  <compound>
O=c1ccn(CCOc2ccc(Cl)cc2Cc2ccc(Cl)cc2Cl)c(=O)[nH]1 [Compound 8]

>  <value relation sign>
=

>  <CC50, µM>
88

$$$$
>  <compound>
O=c1ccn(CCOc2ccc(Cl)cc2Cc2c(Cl)cccc2Cl)c(=O)[nH]1 [Compound 11]

>  <value relation sign>
=

>  <CC50, µM>
49

$$$$
>  <compound>
N#Cc1cc(Cl)cc(Oc2ccc(C#N)cc2OCCn2cc(Cl)c(=O)[nH]c2=O)c1 [Compound 29]

>  <value relation sign>
=

>  <CC50, µM>
94

$$$$
>  <compound>
N#Cc1ccc(Oc2cccc(OCCCO)c2)c(OCCn2ccc(=O)[nH]c2=O)c1 [Compound 47]

>  <value relation sign>
>

>  <CC50, µM>
100

$$$$
>  <compound>
O=c1ccn(CCOc2cc(Cl)ccc2Cc2ccccc2Cl)c(=O)[nH]1 [Compound 15]

>  <value relation sign>
=

>  <CC50, µM>
12

$$$$
